Measured growth inhibition accompanies every entry in the list below.
assay: NCI Yeast Anticancer Drug Screen. Data for the CLN2oe strain (AID 163);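 further: 0% = growth of vehicle-only control cultures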; details: S. cerevisiae CLN2oe strain, at 33.0 µM, hits give high values
About 79,000 compounds went through this panel and 15% of them were active in at least one assay; those are over-represented in the sample as a whole.
Respond numerically; units are % and should not be typed.

INSERT INTO assay_data (structure_string, measured_parameter, numeric_readout) VALUES
  ('CCOc1ccc(NC(=O)C2=C(C)NC(C)=C(C(=O)Nc3ccc(OCC)cc3)C2c2cccc([N+](=O)[O-])c2)cc1', 'growth inhibition', 4),
  ('c1ccc(Cc2cc(-c3ccccc3)n[nH]2)cc1', 'growth inhibition', 0),
  ('O=P(NC1CCCCC1)(OCc1ccccc1)OCc1ccccc1', 'growth inhibition', 12);

Turning now to a further record.
Endpoint output: growth inhibition of c1ccc2[nH]c(-c3cscn3)nc2c1 . Value?
-11

----------
test: NCI Yeast Anticancer Drug Screen. Data for the sgs1 strain (AID 173);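 further: 0% = growth of vehicle-only control cultures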; details: S. cerevisiae sgs1 mutant, at 100.0 µM
The panel holds about 79,000 compounds, 15% with a hit somewhere; the sample as a whole holds those more often. Active and inactive are the calls of the source. Rule as the data show it: active = growth inhibition above about 70%; inactive = the rest.
The categories you may choose from are y = active, n = inactive

Sample answers from the record:
INSERT INTO assay_data (compound, assigned_label) VALUES
  ('Cc1sc2ccc3ccccc3c2[n+]1C', 'y'),
  ('CCOc1ccc(NC(=O)C2=C(C)NC(C)=C(C(=O)Nc3ccc(OCC)cc3)C2c2cccc([N+](=O)[O-])c2)cc1', 'y'),
  ('COC(=O)CC1(O)C(/C=C/c2ccccc2)C(C(=O)OC)C(=O)C(C(=O)OC)C1C(=O)OC (stereo not drawn)', 'n');

Hey, what did the test say about COC(=O)Nc1cn2ccc(C(Cl)=C(Cl)Cl)cc2n1 ?
n

// outcome(item) with item = CCCC/C=C/C(C)(C(=O)OCC)C(=O)OCC
n

For CCCCC(CC)C(=O)[O][Sn]([CH2]CCC)([CH2]CCC)[O]C(=O)C(CC)CCCC (stereo not drawn) , what call appears in the results of this test?
y

----------
test: NCI Yeast Anticancer Drug Screen. Data for the bub3 strain (AID 167); conditions: S. cerevisiae bub3 mutant strain, at 50.0 µM (retest, dose inferred, filed as 5.0), hits give high values
About 79,000 compounds went through this panel and 15% of them were active in at least one assay; those are over-represented in the sample as a whole.
Form field: growth inhibition (one value per entry).
Report the value in % with no unit label.

INSERT INTO results (molecule, measured_parameter, numeric_readout) VALUES
  ('Cc1ccc(CC2(OCCN(C)C)CCC(C(C)(C)C)CC2)cc1 (centres undefined)', 'growth inhibition', 99),
  ('O=C(NCCCNCCN1C(=O)c2cccc3cc([N+](=O)[O-])cc(c23)C1=O)c1cc(-c2ccccc2)nc2ccccc12', 'growth inhibition', 97);

Would you mind telling me what growth inhibition value was observed for Nc1n[n+]([O-])c2ccc(Cl)cc2[n+]1[O-] ?
93

Bench note: what growth inhibition did Cc1c(C)c(C)c(CSC(=N)N)c(C)c1C show?
99

----------
assay: NCI Yeast Anticancer Drug Screen. Data for the mec2-1 strain (AID 157); settings: S. cerevisiae mec2-1 strain, at 50.0 µM (retest, dose inferred, filed as 5.0)
Compounds without any hit were thinned out: in the full panel of roughly 79,000, 15% have a hit. Active and inactive are the calls of the source. Cut-off read from the data, not from the text of the source: active = growth inhibition above about 70%; inactive = the rest.
Log the outcome using a class from active, inactive

INSERT INTO results (compound, assigned_label) VALUES
  ('Cc1ccc([N+]2=NC(c3ccccc3)=NN(c3ccccc3)C2)cc1', 'inactive');

Would you mind telling me which call this test gave O=C1CSC(c2cccc(Cl)c2)N1c1ccc(-c2ccc(-n3c(-c4ccccc4)nc4ccccc4c3=O)cc2)cc1 (stereo unspecified) ?
inactive

What call does the record list for O=C1OC(OC/C(Br)=C(\Br)COC2OC(=O)C(Cl)=C2Cl)C(Cl)=C1Cl (stereo unspecified) ?
active
